Taken from PubChem BioAssay (NCI).

- Test system: OVCAR-3 ovarian
- Procedure Text: NCI-60 one-dose screen, 48 h (100 = growth as untreated, 0 = no growth, -100 = all killed)
- Condition: 10 µM unless noted
The panel holds about 83,000 compounds, 20% with a hit somewhere; the sample as a whole holds those more often.
Recorded Metric: growth (%)
Answers are plain numbers, in %.

Before answering, review these 5 worked examples.
>>> observed("Cc1ccc(NC(=O)CN2CCOCC2)cc1Cl")
104
>>> observed("CCn1c(SC)nnc1-c1cc2c([nH]c3ccccc32)c(-c2cccc(O)c2)n1")
-7.34
>>> observed("COC(=O)CCCNS(=O)(=O)c1cc(C(=O)Nc2ccc(NC(=O)c3cc(S(=O)(=O)NCCCC(=O)OC)c(O)c(O)c3O)cc2)c(O)c(O)c1O")
102
>>> observed("O=C(Nc1ccc(F)cc1)Nc1ccc(Br)c(C(F)(F)F)c1")
11.9
>>> observed("CN[C@@H](CCCNC(N)=NC/C=C(/C)CCC=C(C)C)C(=O)N(C)[C@@H](CCCNC(N)=NCC=C(C)C)C(=O)N[C@H](C)[C@H](OS(=O)(=O)O)c1ccc(OS(=O)(=O)O)c(COS(=O)(=O)O)c1")
107

Parameters: items (list). Returns: growth for each item.
1. O=C1CN(CCN2CC(=O)NC(=O)C2)CC(=O)N1
2. O=C(/C=C/c1ccccc1)Oc1ccc(/C=C/c2cc(OC(=O)/C=C/c3ccccc3)cc(OC(=O)/C=C/c3ccccc3)c2)cc1

## Output
[113, 107]

Parameters: items (list). Returns: growth for each item.
1. CC[C@@]1(O)C(=O)OCc2c1cc1n(c2=O)Cc2c-1nc1ccccc1c2/C=N/OC(C)(C)C
2. O=C1/C(=C/c2cccc3cnccc23)Cc2cc(F)ccc21

## Output
-27.3
109

---

For each of the compounds below, state its growth.
- Test system: MCF7 breast
- Procedure Text: NCI-60 one-dose screen, 48 h (100 = growth as untreated, 0 = no growth, -100 = all killed)
- Condition: 10 µM unless noted
- Protocol: Growth inhibition of the MCF7 human tumor cell line is measured as a screen for anti-cancer activity. Cells are grown in 96 well plates and exposed to the test compound for 48 hours. Compounds are tested at a single concentration, which is 10^-5 M for most compounds. The reported endpoint is percent growth (GI% or GIPRCNT), where numbers from 0 - 100% represent growth inhibition, and numbers from -100% - 0 represent cell death. For example, a value of 40 represents 60% growth inhibition. […]
Compounds without any hit were thinned out: in the full panel of roughly 83,000, 20% have a hit. The source made the active and inactive calls. Rule for the calls: active = growth percent below 10; inactive = the rest.

Before answering, review these 6 worked examples.
>>> observed("COc1ccc(/C(Cl)=N/N=C(\\Cl)c2cc(OC)c(OC)c(OC)c2)cc1OC(C)=O")
"93.9% (inactive)"
>>> observed("COc1ccc(C(=O)Cn2cnc3c(Nc4cc(C(=O)Nc5ccc(N6CCN(CCO)CC6)cc5)ccc4C)ncnc32)cc1")
"87.1% (inactive)"
>>> observed("COc1ccc(N)c(S)c1")
"94.4% (inactive)"
>>> observed("NC(=S)NNC1CCCCC1")
"88.8% (inactive)"
>>> observed("CCCCCCCCN(CCCCCCCC)CC(O)c1cc(-c2ccccc2)nc2ccc(OC)cc12 (stereo unspecified)")
"67% (inactive)"
>>> observed("COc1ccccc1N1CCN(CC(O)COc2c(Br)c(Br)c(Br)c3c2OC(C)(C)C3)CC1 (stereo unspecified)")
"26.8% (inactive)"

Parameters: items (list). Returns: growth for each item.
1. c1cncc(-c2nc3ccccc3[nH]2)c1
2. Oc1ccc(O)c(-[n+]2ccccc2)c1
3. Cc1cn(-c2nc3c(c(NCc4ccccc4)n2)COCC3)c2cccc(C(N)=O)c12
4. O=C(NCCNc1nccc(-c2c(-c3cccc(O)c3)nc3sccn23)n1)Nc1cccc(C(F)(F)F)c1
5. O=C1OC(c2ccc(-c3ccccc3)cc2)=C/C1=C/C=C/c1ccccc1

## Output
1. 85.1% (inactive)
2. 102% (inactive)
3. 35.5% [0.5 µM] (inactive)
4. 55.6% (inactive)
5. 87.9% (inactive)
